Target: T1, Human IL2Rγ extracellular domain expressed with a C-terminal myc-myc-hexahistidine tag (human)
T1 construct: also called hIL-2Rg-MMH; hIL-2RG-MMH
T1 chain: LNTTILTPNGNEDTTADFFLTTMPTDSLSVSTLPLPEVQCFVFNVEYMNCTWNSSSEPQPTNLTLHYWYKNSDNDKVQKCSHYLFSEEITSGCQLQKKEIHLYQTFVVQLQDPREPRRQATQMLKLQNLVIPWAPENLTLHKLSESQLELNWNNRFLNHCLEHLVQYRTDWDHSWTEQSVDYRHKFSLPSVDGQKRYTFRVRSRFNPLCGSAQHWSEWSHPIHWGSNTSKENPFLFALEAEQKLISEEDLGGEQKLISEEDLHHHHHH
Assay: SPR, captured mAb, 37C, dissociation pH 7.4
property label: 100 nM Ag Bound (RU)
Give the value in RU but do not write RU after it.

Known 100 nM Ag Bound (RU) results, listed for orientation:
1) H4H13541P (antibody, human IgG4 S228P, kappa, V domains shown, anti-IL2Rgamma mAb expressed with human IgG4 Fc) VH: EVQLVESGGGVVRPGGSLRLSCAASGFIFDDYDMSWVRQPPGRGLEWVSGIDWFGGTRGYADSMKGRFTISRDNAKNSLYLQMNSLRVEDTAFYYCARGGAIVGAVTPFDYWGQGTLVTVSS VL: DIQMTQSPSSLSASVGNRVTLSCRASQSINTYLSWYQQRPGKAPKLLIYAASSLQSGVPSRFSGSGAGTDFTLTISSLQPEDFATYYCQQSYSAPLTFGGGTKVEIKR; 98
2) H4H12858P (antibody, human IgG4 S228P, kappa, V domains shown, anti-IL2Rgamma mAb expressed with human IgG4 Fc; also called REGN9433) VH: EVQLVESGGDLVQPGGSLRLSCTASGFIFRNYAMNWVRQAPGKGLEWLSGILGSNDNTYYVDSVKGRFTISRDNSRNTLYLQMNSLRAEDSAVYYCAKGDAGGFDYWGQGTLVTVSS VL: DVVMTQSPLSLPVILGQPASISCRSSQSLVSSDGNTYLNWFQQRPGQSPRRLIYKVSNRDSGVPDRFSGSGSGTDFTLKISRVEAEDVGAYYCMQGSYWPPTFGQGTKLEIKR; 141
3) H4H12899P (antibody, human IgG4 S228P, kappa, V domains shown, anti-IL2Rgamma mAb expressed with human IgG4 Fc) VH: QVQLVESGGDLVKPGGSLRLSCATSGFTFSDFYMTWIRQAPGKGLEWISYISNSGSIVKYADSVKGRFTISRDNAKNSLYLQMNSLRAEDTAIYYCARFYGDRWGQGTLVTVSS VL: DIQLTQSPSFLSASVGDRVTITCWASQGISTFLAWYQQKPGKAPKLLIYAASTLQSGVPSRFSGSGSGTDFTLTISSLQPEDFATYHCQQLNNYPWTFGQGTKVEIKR; 158

Short answer for H4H12863P (antibody, human IgG4 S228P, kappa, V domains shown, anti-IL2Rgamma mAb expressed with human IgG4 Fc) VH: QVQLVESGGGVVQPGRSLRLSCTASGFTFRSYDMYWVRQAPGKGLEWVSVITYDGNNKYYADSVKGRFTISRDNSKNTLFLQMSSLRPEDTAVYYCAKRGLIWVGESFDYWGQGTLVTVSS VL: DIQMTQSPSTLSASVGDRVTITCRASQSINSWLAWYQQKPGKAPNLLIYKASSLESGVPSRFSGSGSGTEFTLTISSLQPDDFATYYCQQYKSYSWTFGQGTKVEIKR : 100 nM Ag Bound (RU) was 176

get_value(item= H4H12871P (antibody, human IgG4 S228P, kappa, V domains shown, anti-IL2Rgamma mAb expressed with human IgG4 Fc; also called REGN9434) VH: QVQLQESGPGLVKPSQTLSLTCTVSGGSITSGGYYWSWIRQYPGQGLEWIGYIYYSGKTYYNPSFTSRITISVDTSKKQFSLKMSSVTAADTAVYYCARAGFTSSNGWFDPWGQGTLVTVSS VL: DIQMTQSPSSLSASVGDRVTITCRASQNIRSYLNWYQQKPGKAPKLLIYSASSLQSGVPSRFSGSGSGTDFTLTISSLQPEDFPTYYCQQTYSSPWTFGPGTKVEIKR , readout=100 nM Ag Bound (RU)) returns 139

Lab note: H4H12889P (antibody, human IgG4 S228P, kappa, V domains shown, anti-IL2Rgamma mAb expressed with human IgG4 Fc; also called REGN7257) VH: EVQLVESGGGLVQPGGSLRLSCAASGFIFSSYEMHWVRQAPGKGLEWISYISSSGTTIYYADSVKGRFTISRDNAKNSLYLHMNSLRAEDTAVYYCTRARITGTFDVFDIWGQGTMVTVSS VL: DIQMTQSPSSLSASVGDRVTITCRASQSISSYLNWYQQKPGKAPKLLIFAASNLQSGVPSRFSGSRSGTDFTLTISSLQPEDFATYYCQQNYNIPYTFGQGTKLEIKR gave 100 nM Ag Bound (RU) of 147

// sample H4H12900P (antibody, human IgG4 S228P, kappa, V domains shown, anti-IL2Rgamma mAb expressed with human IgG4 Fc) VH: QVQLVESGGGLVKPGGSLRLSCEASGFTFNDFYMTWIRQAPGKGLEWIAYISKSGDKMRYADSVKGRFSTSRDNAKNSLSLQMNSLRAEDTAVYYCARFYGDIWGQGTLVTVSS VL: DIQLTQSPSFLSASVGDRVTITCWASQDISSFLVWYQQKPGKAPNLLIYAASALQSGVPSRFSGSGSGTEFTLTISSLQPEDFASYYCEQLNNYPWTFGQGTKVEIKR , its 100 nM Ag Bound (RU) was 162

The value of 100 nM Ag Bound (RU) measured for the binder H4H12886P (antibody, human IgG4 S228P, kappa, V domains shown, anti-IL2Rgamma mAb expressed with human IgG4 Fc) VH: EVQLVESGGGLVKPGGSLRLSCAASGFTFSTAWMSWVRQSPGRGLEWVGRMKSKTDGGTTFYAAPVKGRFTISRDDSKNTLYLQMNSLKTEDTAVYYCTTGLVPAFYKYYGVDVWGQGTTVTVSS VL: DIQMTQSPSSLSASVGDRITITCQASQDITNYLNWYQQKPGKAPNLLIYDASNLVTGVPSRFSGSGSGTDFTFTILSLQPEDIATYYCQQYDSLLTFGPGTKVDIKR turned out to be 146

100 nM Ag Bound (RU) for H4H12884P (antibody, human IgG4 S228P, kappa, V domains shown, anti-IL2Rgamma mAb expressed with human IgG4 Fc) VH: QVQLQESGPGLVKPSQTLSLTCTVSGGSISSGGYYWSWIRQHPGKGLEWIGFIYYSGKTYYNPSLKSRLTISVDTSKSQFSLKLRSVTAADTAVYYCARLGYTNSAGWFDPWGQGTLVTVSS VL: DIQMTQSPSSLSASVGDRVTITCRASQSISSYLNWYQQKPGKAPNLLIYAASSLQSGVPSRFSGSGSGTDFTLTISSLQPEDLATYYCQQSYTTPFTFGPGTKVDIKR is 171

The binder H4H12874P (antibody, human IgG4 S228P, kappa, V domains shown, anti-IL2Rgamma mAb expressed with human IgG4 Fc) VH: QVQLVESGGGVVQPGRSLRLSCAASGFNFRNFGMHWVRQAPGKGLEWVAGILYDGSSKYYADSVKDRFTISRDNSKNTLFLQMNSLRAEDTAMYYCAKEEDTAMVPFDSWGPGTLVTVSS VL: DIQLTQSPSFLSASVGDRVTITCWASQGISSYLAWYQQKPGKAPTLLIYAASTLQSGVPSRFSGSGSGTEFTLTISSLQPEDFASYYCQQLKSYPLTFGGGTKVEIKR showed 100 nM Ag Bound (RU) equal to 99

Looking up H4H13538P (antibody, human IgG4 S228P, kappa, V domains shown, anti-IL2Rgamma mAb expressed with human IgG4 Fc) VH: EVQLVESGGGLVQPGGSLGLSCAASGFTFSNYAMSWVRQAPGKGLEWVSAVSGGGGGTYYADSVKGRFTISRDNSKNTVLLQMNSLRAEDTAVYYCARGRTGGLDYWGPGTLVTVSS VL: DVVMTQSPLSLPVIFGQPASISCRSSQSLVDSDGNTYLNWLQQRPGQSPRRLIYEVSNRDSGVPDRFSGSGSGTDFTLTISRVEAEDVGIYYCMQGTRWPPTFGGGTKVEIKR , I see its 100 nM Ag Bound (RU) listed as 110
